Measured values drawn from patent US20230158025A1 for this set.

- assay-name: aqueous kinetic solubility
reported-metric: Sol.

> print(dat)
                                    molecule  reported.metric      result
 1  CC1=C(C(=O)Nc2nnc(-c3cccnc3)s2)C(c2ccccc2Cl)N=C(Nc2nc3ccc(C)cc3o2)N1 (centres unmarked) [Compound 99]             Sol.    <1 µg/mL
 2  CC1=C(C(=O)Nc2cc(C(=O)O)ccn2)C(c2ccc(N3CCCCC3)cc2Cl)N=C(Nc2nc3ccc(F)cc3o2)N1 (centres unmarked) [Compound 58]             Sol.  1.92 µg/mL
 3  CC1=C(C(=O)Nc2nnc(-c3cccnc3)s2)C(c2ccccc2Cl)N=C(Nc2nc3cc(Cl)ccc3o2)N1 (centres unmarked) [Compound 98]             Sol.    <1 µg/mL
 4  CC1=C(C(=O)NCc2cnn(Cc3ccccc3)c2)C(c2ccc(C)cc2Cl)N=C(Nc2nc3cccc(N)c3o2)N1 (centres unmarked) [Compound 114]             Sol.    <1 µg/mL
 5  COc1ccc([C@@H]2N=C(Nc3nc4cccc(N)c4o3)NC(C)=C2C(=O)Nc2cc(C(=O)O)ccn2)c(Cl)c1 [Compound 87]             Sol.   >81 µg/mL
 6  CC1=C(C(=O)NCc2cnn(C)c2)C(c2ccccc2Cl)N=C(Nc2nc3cccc(N)c3o2)N1 (centres unmarked) [Compound 82]             Sol.   >72 µg/mL
 7  CC1=C(C(=O)Nc2nnc(-c3cccnc3)s2)C(c2ccccc2Cl)N=C(Nc2nc3ccc(F)cc3o2)N1 (centres unmarked) [Compound 100]             Sol.    <1 µg/mL
 8  CC1=C(C(=O)Nc2nnc(-c3cccnc3)s2)C(c2ccccc2Cl)N=C(Nc2nc3ccc(Cl)cc3o2)N1 (centres unmarked) [Compound 94]             Sol.    <1 µg/mL
 9  CC1=C(C(=O)Nc2cc(C(=O)O)ccn2)C(c2ccc(C)cc2Cl)N=C(Nc2nc3cccnc3o2)N1 (centres unmarked) [Compound 108]             Sol.   >51 µg/mL
10  CC1=C(C(=O)Nc2nnc(-c3cccnc3)s2)C(c2ccccc2Cl)N=C(Nc2nc3cc(C)ccc3o2)N1 (centres unmarked) [Compound 96]             Sol.    <1 µg/mL
11  CC1=C(C(=O)Nc2cc(C(=O)O)ccn2)C(c2ccc(-n3ccnc3)cc2Cl)N=C(Nc2nc3ccc(F)cc3o2)N1 (centres unmarked) [Compound 74]             Sol.   >87 µg/mL
12  CCn1cc(CNC(=O)C2=C(C)NC(Nc3nc4ccc(F)cc4o3)=NC2c2ccc(C)cc2Cl)cn1 (centres unmarked) [Compound 112]             Sol.    <1 µg/mL
13  CC1=C(C(=O)Nc2cc(C(=O)O)ccn2)C(c2ccccc2Cl)N=C(Nc2nc3cccc([N+](=O)[O-])c3o2)N1 (centres unmarked) [Compound 23]             Sol.   7.3 µg/mL
14  CC1=C(C(=O)Nc2cc(C(=O)O)ccn2)C(c2ccc(C)cc2Cl)N=C(Nc2nc3ccc(F)cc3o2)N1 (racemic) [Compound 50]             Sol.   2.8 µg/mL
